- study-system: T1, human GIP receptor (human, UniProt P48546 22-466)
- T1 sequence (looked up): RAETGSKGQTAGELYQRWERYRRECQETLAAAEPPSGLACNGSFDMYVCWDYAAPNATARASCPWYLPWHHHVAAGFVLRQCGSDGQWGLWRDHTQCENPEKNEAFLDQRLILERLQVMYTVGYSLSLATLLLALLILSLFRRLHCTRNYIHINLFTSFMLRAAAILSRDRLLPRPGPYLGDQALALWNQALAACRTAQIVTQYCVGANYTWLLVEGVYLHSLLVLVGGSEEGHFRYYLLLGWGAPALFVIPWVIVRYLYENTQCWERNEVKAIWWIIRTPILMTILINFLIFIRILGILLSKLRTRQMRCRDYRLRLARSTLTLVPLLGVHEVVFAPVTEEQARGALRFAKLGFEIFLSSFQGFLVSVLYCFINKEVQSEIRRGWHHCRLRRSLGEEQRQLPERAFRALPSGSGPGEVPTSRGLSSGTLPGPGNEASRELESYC
- method-notes: cell-based or functional assay
Numbered stars: 1 amine (or outer) side, 2 acyl side, 3 side chain; on linkers, the order of the positions; unused ones are H or OH. Square brackets hold non-standard residues; d marks the D form. Side chains are listed from the residue outwards. * marks the point of attachment. C18 diacid = O=C(O)CCCCCCCCCCCCCCCCC(=O)*; γGlu = O=C(O)[C@H](CCC(=O)[*:2])N[*:1]; Chem. 28 = not defined here; AEEA = NCCOCCOCC(=O)O; Aib = CC(C)(N)C(=O)O
readout: hGIPR Potency, 1% HSA, EC50 [pM] (pM)

1. Compound 47 (reading uncertain) peptide: H[Aib]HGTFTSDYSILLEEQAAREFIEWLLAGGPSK(Chem. 28)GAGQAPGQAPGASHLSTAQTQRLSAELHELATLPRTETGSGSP-NH2 | 162
2. Compound 64 (peptide) peptide: H[Aib]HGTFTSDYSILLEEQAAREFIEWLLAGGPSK([AEEA-AEEA-γGlu-C18 diacid])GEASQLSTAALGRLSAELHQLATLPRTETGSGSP-NH2 | 100
3. Compound 95 (peptide) peptide: Y[Aib]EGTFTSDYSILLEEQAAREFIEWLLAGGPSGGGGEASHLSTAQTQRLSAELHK([AEEA-AEEA-γGlu-C18 diacid])LATLPRTETGSGSP-NH2 | 22.8
4. Compound 70 (peptide) peptide: H[Aib]HGTFTSDYSILLEEQAAREFIEWLLAGGPSRGAPPPSGGGEASELSTAALGRLSAELHK([AEEA-AEEA-γGlu-C18 diacid])LATLPRTETGSGSP-NH2 | 19.1
